# Tested on: MDA-MB-435
# PROTOCOL DETAILS: NCI tumour cell line growth inhibition, 48 h
Activity calls are given as the source filed them. Cut-off read from the data, not from the text of the source: active = GI50 up to about 1.1 µM and inactive = higher.
Use one of these outcomes when replying: active, inactive

Can you look up the reported call for CNc1ccc([N+](=O)[O-])cc1C(=O)N1CCC[C@H]1CO for me?
inactive

Can you look up the reported call for O=C1c2ccccc2-c2nnc3c(c21)Cc1ccccc1C3 for me?
inactive

Can you look up the reported call for CN(C)/C=N/S(=O)(=O)c1nn2c(C=O)c(-c3ccc([N+](=O)[O-])cc3)nc2s1 for me?
inactive

Can you look up the reported call for O=C(O)C1CSC2(CCCN(Cc3ccccc3)C2)N1 (stereo unspecified) for me?
inactive

Can you look up the reported call for C[Si](C)(C)C1=C2C(=O)c3ccccc3C(=O)C2=C([Si](C)(C)C)[C@@H]2CCCC[C@H]12 for me?
inactive

Can you look up the reported call for Cc1nn(C(=O)Cc2ccccc2)c2c1C(c1ccccc1O)SC(=N)N2 (stereo unspecified) for me?
inactive

Can you look up the reported call for Clc1ccc2ns[s+]c2c1 for me?
active

Can you look up the reported call for CC(C)=C/C=C1/CS(=O)(=O)C=C1C for me?
inactive

Can you look up the reported call for Fc1cc(-c2cc(-c3ccccc3)no2)c(Cl)cc1Cl for me?
inactive

Can you look up the reported call for O=C1c2c(Br)sc(Br)c2[C@H]2NC(=S)O[C@@H]12 for me?
inactive

Can you look up the reported call for O=C(NNC(=S)Nc1ccc(Cl)cc1)c1cc(-c2ccccc2)nc2ccccc12 for me?
inactive

* * *

# Tested on: MCF7
# PROTOCOL DETAILS: NCI tumour cell line growth inhibition, 48 h
Active and inactive are the calls of the source. Rule as the data show it: active = GI50 up to about 1.1 µM and inactive = higher.
Use one of these outcomes when replying: label 1 = active, label 0 = inactive

Can you look up the reported call for CCCCCCCCCCCCCCCCCC(=O)OCC(COC1OC(COP(=O)(O)O)C(O)C(O)C1O)OC(=O)CCCCCCCCCCCCCCCCC (stereo not drawn) for me?
label 0

Can you look up the reported call for C=C1CC[C@@H]2[C@](C)(COC(=O)CCC(=O)O)CCC[C@@]2(C)[C@@H]1CCC1=CC(=O)OC1 for me?
label 0

Can you look up the reported call for O=C1c2c(Br)sc(Br)c2[C@H]2NC(=S)O[C@@H]12 for me?
label 0

Can you look up the reported call for O=c1/c(=C/c2ccc(-c3ccc(Cl)cc3Cl)o2)sc2n1[C@@H](c1ccc3c(c1)OCO3)C=C(c1cc(F)c(Cl)cc1Cl)N=2 for me?
label 0

Can you look up the reported call for COc1cccc(-c2cc(O)c3cc(Cl)cnc3n2)c1 for me?
label 1

Can you look up the reported call for C[C@H](CCC(=O)O)[C@H]1CC[C@H]2[C@@H]3[C@@H](O)C[C@@H]4C[C@H](O)CC[C@]4(C)[C@H]3C[C@H](O)[C@]12C for me?
label 0

Can you look up the reported call for Cc1cn(C2CC(n3cc(Cn4cc(I)c(=O)[nH]c4=O)nn3)C(CO)O2)c(=O)[nH]c1=O (stereo not drawn) for me?
label 0

Can you look up the reported call for CN1CCN(C(=S)N(C(=O)c2ccco2)C2CCCCC2)CC1 for me?
label 0

* * *

Please provide measured GI50 for the entries that follow.
# Tested on: UACC-62
# PROTOCOL DETAILS: NCI tumour cell line growth inhibition, 48 h
Activity calls are given as the source filed them. No stated cut-off is given here; in the data, active = GI50 up to about 1.1 µM and inactive = higher.

Lab note: COc1ccc(/C=N/NC(=O)c2sc(=S)n(-c3ccccc3)c2N)cc1 gave GI50 of 89.1 µM (inactive)

Lab note: COc1ccc2[nH]c3c([N+](=O)[O-])ccc(NCCN(C)C)c3/c(=N/CCN(C)C)c2c1 gave GI50 of 7.23 µM (inactive)

Lab note: CC(NC(CC12CC3CC(CC(C3)C1)C2)C(N)=O)c1ccccc1 (stereo unspecified) gave GI50 of 20.3 µM (inactive)

Lab note: c1ccc(-c2cc(-c3cc(-c4ccccn4)[nH]n3)n[nH]2)nc1 gave GI50 of > 100 µM (inactive)

Lab note: C[n+]1c2n(c3nc(N)[nH]c(=O)c31)C1OC(C2)C(O)C1O (stereo unspecified) gave GI50 of > 100 µM (inactive)

Lab note: COC(=O)/C=C\C(C#N)(C#N)/N=C/c1cc(Br)cs1 gave GI50 of 17.7 µM (inactive)

Lab note: CC1=CC(C)(C)NN1C1=NS(=O)(=O)c2ccccc2N1C gave GI50 of > 100 µM (inactive)

Lab note: COc1cc(C(O)C(=O)c2nc3ccc([N+](=O)[O-])cc3nc2O)ccc1O (stereo unspecified) gave GI50 of 73.1 µM (inactive)

Lab note: CCC12CC(c3ccccc3)C(C(=O)N1)C(=O)N2 (stereo unspecified) gave GI50 of > 100 µM (inactive)

Lab note: COc1cccc(NC(=O)C(=O)C2C=CCS2(=O)=O)c1 (stereo unspecified) gave GI50 of > 100 µM (inactive)

Lab note: COc1ccc2c(c1)CCCN2S(=O)(=O)c1ccccc1[N+](=O)[O-] gave GI50 of 47.8 µM (inactive)

* * *

# Tested on: SNB-75
# PROTOCOL DETAILS: NCI tumour cell line growth inhibition, 48 h
Calls of active or inactive are those of the source. Cut-off read from the data, not from the text of the source: active = GI50 up to about 1.1 µM and inactive = higher.
READOUT LABEL: GI50

Considering C/C(=N/NC(=S)Nc1ccccc1C)c1ccccn1 , its GI50 with SNB-75 was recorded as 0.583 µM (active)

Considering FC1=C2C3CCC(C3)C2C1(F)F (centres undefined) , its GI50 with SNB-75 was recorded as > 100 µM (inactive)

Considering CCOC(=O)c1nc2ccccc2nc1Nc1ccc(F)cc1 , its GI50 with SNB-75 was recorded as 3.52 µM (inactive)

Considering Clc1ccc2ns[s+]c2c1 , its GI50 with SNB-75 was recorded as > 79.3 µM (inactive)

Considering N#C[BH2-][n+]1cn(C2CC(OP(=O)(O)OCC3OC(n4ccc(N)nc4=O)CC3O)C(CO)O2)c2nc(N)[nH]c(=O)c21 (centres undefined) , its GI50 with SNB-75 was recorded as > 100 µM (inactive)

Considering O=C1c2ccccc2-c2nnc3c(c21)Cc1ccccc1C3 , its GI50 with SNB-75 was recorded as 2.43 µM (inactive)

Considering C[C@]12CCc3nonc3C1CC[C@@H]1C2CC[C@]2(C)C(=O)CCC12 (some centres undefined) , its GI50 with SNB-75 was recorded as 28.8 µM (inactive)

Considering Cc1ccc(NC(=O)c2ccccc2C(=O)O)cc1C , its GI50 with SNB-75 was recorded as > 100 µM (inactive)

Considering CNc1ccc([N+](=O)[O-])cc1C(=O)N1CCC[C@H]1CO , its GI50 with SNB-75 was recorded as > 100 µM (inactive)

Considering COc1cccc(/C(C=O)=C(\Cl)c2ccc(OC)c(OC)c2)c1 , its GI50 with SNB-75 was recorded as 5.04 µM (inactive)

Considering Cn1cc2ccccc2c1-c1nc(F)nc(Nc2ccc(N)cc2)n1 , its GI50 with SNB-75 was recorded as 11.9 µM (inactive)

Considering O=C1CC(O)c2cscc21 (centres undefined) , its GI50 with SNB-75 was recorded as > 100 µM (inactive)

Considering CCOP(=O)(OCC)C(C(=O)OC)C(=O)C(=O)Nc1cccc([N+](=O)[O-])c1 (centres undefined) , its GI50 with SNB-75 was recorded as > 100 µM (inactive)

Considering COc1cc(C(c2cc(OC)c(OC)c(OC)c2)N2C(=O)CCC2C(=O)O)cc(OC)c1OC (centres undefined) , its GI50 with SNB-75 was recorded as > 100 µM (inactive)

Considering c1ccc(-c2cc(-c3cc(-c4ccccn4)[nH]n3)n[nH]2)nc1 , its GI50 with SNB-75 was recorded as 69.8 µM (inactive)

Considering Cc1ccnc2nc(-c3ccc(F)cc3)cc(O)c12 , its GI50 with SNB-75 was recorded as 29.6 µM (inactive)

Considering COC(=O)C(=O)C(C(=O)C(=O)Nc1ccc([N+](=O)[O-])cc1[N+](=O)[O-])c1nc2ccc([N+](=O)[O-])cc2nc1O (centres undefined) , its GI50 with SNB-75 was recorded as 14.6 µM (inactive)

Considering CN(C)/C=N/S(=O)(=O)c1nn2c(C=O)c(-c3ccc([N+](=O)[O-])cc3)nc2s1 , its GI50 with SNB-75 was recorded as 23.6 µM (inactive)

Considering CCC12CC(c3ccccc3)C(C(=O)N1)C(=O)N2 (centres undefined) , its GI50 with SNB-75 was recorded as 65.3 µM (inactive)

Considering Cc1ccc(C2=CC(=O)/C(=C\C(=O)c3ccc(Cl)cc3)O2)cc1 , its GI50 with SNB-75 was recorded as 35.8 µM (inactive)

Considering Cc1ccc2nnc(NS(=O)(=O)c3cc(C)c(Cl)cc3S)n2n1 , its GI50 with SNB-75 was recorded as > 100 µM (inactive)

Considering O=C(CC1(O)C(=O)Nc2ccc([N+](=O)[O-])cc21)c1ccc(Br)cc1 (centres undefined) , its GI50 with SNB-75 was recorded as 23.3 µM (inactive)

Considering O=C(O)Cc1cccc2c(=O)cc(-c3ccccc3)oc12 , its GI50 with SNB-75 was recorded as 212 µM (inactive)

Considering COc1cc(/C=C2/C[C@H]3[C@@H]4CCC5=CC(=O)CC[C@]5(C)[C@H]4CC[C@]3(C)NC2=O)cc(OC)c1OC , its GI50 with SNB-75 was recorded as 15.6 µM (inactive)

Measured values drawn from ChEMBL document CHEMBL1201862 for this set.
